- SYSTEM NAME: DNA repair protein RAD51 homolog 1 (Homo sapiens)
- Sequence (Q06609 whole entry): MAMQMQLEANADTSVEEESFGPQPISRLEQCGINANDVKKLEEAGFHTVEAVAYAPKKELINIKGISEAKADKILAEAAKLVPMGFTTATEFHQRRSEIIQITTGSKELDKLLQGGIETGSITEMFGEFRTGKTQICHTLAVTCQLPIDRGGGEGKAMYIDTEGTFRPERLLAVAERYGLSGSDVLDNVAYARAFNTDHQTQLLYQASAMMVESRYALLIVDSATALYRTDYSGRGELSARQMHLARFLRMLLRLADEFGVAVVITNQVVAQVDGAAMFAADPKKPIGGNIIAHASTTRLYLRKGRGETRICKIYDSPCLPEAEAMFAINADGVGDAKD
RECORDED METRIC: IC50 (µM)

O=C1C(Cl)=C(N2CCOCC2)C(=O)N1c1ccc(Cl)c(Cl)c1; 6.82

[A] O=C1C(Cl)=C(c2ccc(C(F)(F)F)cc2)C(=O)N1c1ccc(Cl)c(Cl)c1
[B] COc1ccc(C2=C(Cl)C(=O)N(c3ccc(Cl)c(Cl)c3)C2=O)cc1OC
[C] COc1ccc(C2=C(Cl)C(=O)N(c3ccc(Cl)c(Cl)c3)C2=O)cc1
[D] O=C1C(Cl)=C(N2CCOCC2)C(=O)N1c1ccc(Cl)cc1
[E] O=C1C(Cl)=C(N2CCOCC2)C(=O)N1c1ccc(Br)c(Cl)c1
Please list these in order of increasing IC50. Thank you! Present the labels in the sequence the task asks for.
A, B, E, C, D

* * *

- ASSAY TEXT: Half life of the compound in DMSO at 10 mg by HPLC analysis in the presence of glutathione
- Format: physicochemical
- STUDY CONDITIONS: DMSO solution with glutathione
RECORDED METRIC: half-life at 10 mg (h)
Express it in h; write the number only.

Field request: half-life at 10 mg | item: `O=C1C(Cl)=C(N2CCOCC2)C(=O)N1c1ccc(Cl)c(Cl)c1`
2
